# merged literature set: pKi with Histamine H3 receptor (Rattus norvegicus, UniProt Q9QYN8)
# Sequence (Q9QYN8 whole entry): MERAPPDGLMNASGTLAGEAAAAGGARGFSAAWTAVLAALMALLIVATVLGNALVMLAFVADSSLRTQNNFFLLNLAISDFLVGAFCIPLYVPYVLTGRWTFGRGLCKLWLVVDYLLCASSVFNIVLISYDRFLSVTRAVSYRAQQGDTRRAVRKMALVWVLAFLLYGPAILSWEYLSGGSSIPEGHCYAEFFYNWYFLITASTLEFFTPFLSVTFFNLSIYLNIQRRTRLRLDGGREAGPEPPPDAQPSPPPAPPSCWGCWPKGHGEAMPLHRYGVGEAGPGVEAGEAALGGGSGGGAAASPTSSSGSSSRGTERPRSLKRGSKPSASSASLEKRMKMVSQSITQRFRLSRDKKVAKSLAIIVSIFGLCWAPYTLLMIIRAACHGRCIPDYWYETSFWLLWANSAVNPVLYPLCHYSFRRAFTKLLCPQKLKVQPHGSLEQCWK
Answers are plain numbers, as −log10 of the molar value.

Known pKi results, listed for orientation:
compound: Cc1n[nH]c(=O)cc1-c1ccc(OCCCN2CCC[C@H]2C)cc1
pKi: 8.29
//
compound: Cc1nn(-c2ccccn2)c(=O)cc1-c1ccc(OCCCN2CCC[C@H]2C)cc1
pKi: 8.30

Provide reported pKi for each item, in the same order as listed.
1. CC(C)N1CCCc2cc(OCCCN3CCCCC3)ccc2C1
2. Cc1n[nH]c(=O)cc1-c1ccc(OCCCN2CCCCC2)cc1
3. Cc1cc(OCCCN2CCC[C@H]2C)ccc1C1=NNC(=O)C2CC12 (mixture of isomers)
4. Cn1ncc(-c2ccc(OCCCN3CCCCC3)cc2)cc1=O

Completion:
1. 8.89
2. 7.64
3. 7.18
4. 7.52
